# test-details: protein stability index of a GFP-peptide fusion (GPS, HEK-293T) (PSI 1-6); higher = more stable;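 also: 24-mer peptide tiles fused after GFP, lentivirally expressed, FACS-sorted into six equal bins by GFP/DsRed ratio, decoded by Illumina sequencing, PSI is the read-weighted mean bin number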
# reported-conditions: treatment: DMSO; c terminus: a fixed tail appended
reported-property: protein stability index
Write no unit; give the number alone.

[[record]]
sequence_text = "MKNEKLLSKASEPKYQLFVPQLVT [RNF180]"
numeric_value = 2.69

[[record]]
sequence_text = "VSGSPVTQNHAASALPTGSPKRGT [FBF1]"
numeric_value = 5.27

[[record]]
sequence_text = "DVPNRLVDNIDMIDGDGDDMERFM [BEX5]"
numeric_value = 4.98

[[record]]
sequence_text = "AKVDGETASDSESRAESAPLPVSA [CDS2]"
numeric_value = 5.57


stdin: Sample LSQADFLVCTFSSQVCRVAYEIMQ [FUT8] — what was its protein stability index?
stdout: 2.96

stdin: Sample GLGAGFGGGFAGGDGLLVGSEKVT [KRT16] — what was its protein stability index?
stdout: 3.98

stdin: Sample INRWRFLLQCLEDLDANLRKLNSR [CRY1] — what was its protein stability index?
stdout: 2.06

stdin: Sample LSPKIMQEAFLVQEVVELPVTERQ [TBC1D10A] — what was its protein stability index?
stdout: 3.98

stdin: Sample VPFDIFTEEVKFYQLGEEALLKFR [KCNA4] — what was its protein stability index?
stdout: 2.32

stdin: Sample RVIKCDPDCLRACQEQIEALLESS [CCND1] — what was its protein stability index?
stdout: 3.3

---

# test-details: protein stability index of a GFP-peptide fusion (GPS, HEK-293T) (PSI 1-6); higher = more stable
# reported-conditions: treatment: DMSO; c terminus: a fixed tail appended
Each record here notes measured protein stability index.
Write no unit; give the number alone.

As a guide, the following entries are already answered.
[[record]]
sequence_text = "RSQKHKERIRLLRQKREAAARKKY [C18orf25]"
numeric_value = 4.17

[[record]]
sequence_text = "AAPWPMAFPYQYPPPPHPYNPHPG [DVL3]"
numeric_value = 2.62

[[record]]
sequence_text = "FIMLLIGIVLPVFYLVYFKIQASG [LYSMD4]"
numeric_value = 2.31


Kindly consider the entry below.
stdin: Sample MAAHLKKRVYEEFTKVVQPQEEIA [INTS4] — what was its protein stability index?
stdout: 3.67

---

# test-details: protein stability index of a GFP-peptide fusion (GPS, HEK-293T) (PSI 1-6); higher = more stable
# reported-conditions: treatment: DMSO; c terminus: a fixed tail appended
Classification field: enter y for protein stability index values not below 3, n for values below it.

[[record]]
sequence_text = "QHNLRYSLENTLTESEARYSSQLS [KRT33B]"
assigned_label = "y"

[[record]]
sequence_text = "SYIGLPYADHNYGARPPPTPPASP [KMT2E]"
assigned_label = "y"

[[record]]
sequence_text = "EDRVKLFGIEIEVTDINDNAPKFQ [PCDHGA10]"
assigned_label = "y"

[[record]]
sequence_text = "PEAAAAQLRATAGSLILPPGPGGT [FCHO1]"
assigned_label = "y"

[[record]]
sequence_text = "MGKSASKQFHNEVLKAHNEYRQKH [GLIPR2]"
assigned_label = "y"


stdin: Item SFTTNEKAILEQNFRDLVRDLEKQ [TRIM29] with protein stability index of 3 or above?
stdout: y

stdin: Item HCNLFVYSSSKGSLRLCDMRAAAL [PPP2R2C] with protein stability index of 3 or above?
stdout: n

stdin: Item MADPWQECMDYAVTLARQAGEVVC [IMPA1] with protein stability index of 3 or above?
stdout: n

stdin: Item AIPYLEHIIHVWEETGSRFHNCLI [VPS39] with protein stability index of 3 or above?
stdout: n

stdin: Item LFAEEQAEGPNRLLYKDGFSTILH [LPCAT4] with protein stability index of 3 or above?
stdout: y

stdin: Item EIETWVREHCPENRERVVSLIEDL [ZNF449] with protein stability index of 3 or above?
stdout: y

stdin: Item ETETLVTREAVTEILGIEPDREKG [TSN] with protein stability index of 3 or above?
stdout: y

stdin: Item NYTATVRGLRGPNLTSPASITFTT [TNXB] with protein stability index of 3 or above?
stdout: n

stdin: Item GLVDFRDVALALAALDGGRSLEEL [LPCAT4] with protein stability index of 3 or above?
stdout: n

stdin: Item SESTNTTIEDEDTKVRKQEIIKVT [CAMK2A] with protein stability index of 3 or above?
stdout: y

stdin: Item VQADQERERQRRLEVEREAEKKRE [LRRC59] with protein stability index of 3 or above?
stdout: y

stdin: Item SGTPQAGTPSPSRSRDSNSGPEEP [RTN2] with protein stability index of 3 or above?
stdout: y

stdin: Item LPESLARSLLPSTEYQKQLLAAQV [FBF1] with protein stability index of 3 or above?
stdout: n

stdin: Item GGEGVEVELLHNTSYTRQACLVSC [SCNN1D] with protein stability index of 3 or above?
stdout: n

stdin: Item VQDMGQEDMLLPLAWRIVNDTYRT [CCNC] with protein stability index of 3 or above?
stdout: n

stdin: Item ALDKQHSRDSAAITHSTYSLPASS [NOL4L] with protein stability index of 3 or above?
stdout: y

stdin: Item ERLAEAEKSQLIMQAEAEAASVRM [FLOT1] with protein stability index of 3 or above?
stdout: y

stdin: Item IEVFDPDANTWRLYGGMNYRRLGG [KLHL20] with protein stability index of 3 or above?
stdout: n

stdin: Item SMFSRVGGIIAPFIPSLKYVQWSL [SLC22A15] with protein stability index of 3 or above?
stdout: n

stdin: Item QVLEMKNQQIHEQEKKILELEKLA [MTUS2] with protein stability index of 3 or above?
stdout: y

stdin: Item DAEVSCTDNGTFNLSRGQTPLTEG [RETREG3] with protein stability index of 3 or above?
stdout: y

stdin: Item PVNPELTAGPITGLVYRLNRFRVE [TRIM43] with protein stability index of 3 or above?
stdout: n

stdin: Item HRDSSQAIPITELTKSQVQDKPYK [ZNF8] with protein stability index of 3 or above?
stdout: y
